Just for reference, patent US20240383905A1 is where these values come from.

In what follows, each item is paired with its IC50 for FGFR2 (Homo sapiens, UniProt P21802).

* C=CC(=O)Nc1ccc(-c2nn3ncnc(N)c3c2-c2ccc(Oc3nccc(NC)n3)c(F)c2)cc1 | 5 to 10 nM
* C=CC(=O)Nc1ccc(-c2c(-c3ccc(C(=O)NC4CC4)c(OC)c3)c3c(N)ncc(C#N)c3n2CCF)cc1 | < 5 nM

Provide IC50 for all items below, preserving their order.
1. C=C(C)C(=O)Nc1ccc(-c2nn3ncnc(N)c3c2-c2ccc(Oc3nccc(C)n3)c(F)c2)c(Cl)c1
2. C=C(F)C(=O)Nc1ccc(-c2nn3ncnc(N)c3c2-c2ccc(C(=O)NCC3CC3)c(OC)c2)cc1
3. C=C(F)C(=O)Nc1ccc(-c2nn3ncnc(N)c3c2-c2ccc(C(=O)NC34CC(C3)C4)c(OC)c2)c(F)c1
4. C=CC(=O)Nc1ccc(-c2nn3ncnc(N)c3c2-c2ccc(C(=O)NCC(C)(C)OC)c(OC)c2)cc1
5. C=C(F)C(=O)Nc1ccc(-c2c(-c3ccc(C(=O)NCC(F)(F)F)c(OC)c3)c3c(N)ncc(C#N)c3n2C)c(F)c1

Out:
< 5 nM
< 5 nM
< 5 nM
5 to 10 nM
5 to 10 nM

Provide IC50 for all items below, preserving their order.
1. C=CC(=O)Nc1ccc(-c2nn3ncnc(N)c3c2-c2ccc(Oc3nccc(C)n3)c(F)c2)cc1
2. C=CC(=O)Nc1ccc(-c2[nH]c3c(C#N)cnc(N)c3c2-c2ccc(C(=O)NC3CC3)c(OC)c2)cc1
3. C=CC(=O)Nc1ccc(-c2nn3ncnc(N)c3c2-c2ccc(C(=O)NCC(F)F)c(OC)c2)cc1
4. C=C(F)C(=O)Nc1ccc(-c2[nH]c3c(C#N)cnc(N)c3c2-c2ccc(C(=O)NC3(C)CC3)c(OC)c2)cc1
5. C=CC(=O)Nc1ccc(-c2c(-c3ccc(Oc4nccc(C)n4)c(OC)c3)c3c(N)ncc(C(N)=O)c3n2C)cc1
6. C=C(C)C(=O)Nc1ccc(-c2c(-c3ccc(Oc4cccc(C)n4)cc3)c3c(N)ncc(C#N)c3n2C)c(F)c1
7. C=CC(=O)Nc1ccc(-c2nn3ncnc(N)c3c2-c2ccc(C(=O)NC3CC3)c(OC)c2)c(F)c1

Out:
< 5 nM
< 5 nM
< 5 nM
5 to 10 nM
< 5 nM
> 10 nM
< 5 nM
